test system: Staphylococcus aureus; assay: Antibacterial activity against macrolide-susceptible Staphylococcus aureus ATCC 29213; type: functional
MIC less than 30 µg/mL is TRUE; MIC greater than or equal to 30 µg/mL is FALSE.

Is the reported MIC for CC[C@H]1OC(=O)[C@H](C)[C@@H](O[C@H]2C[C@@](C)(OC)[C@@H](O)[C@H](C)O2)[C@H](C)[C@@H](O[C@@H]2O[C@H](C)C[C@H](N(C)C)[C@H]2O)[C@](C)(O)C[C@@H](C)C(=O)[C@H](C)[C@@H](O)[C@]1(C)O [ERYTHROMYCIN] strictly below 30 µg/mL?
TRUE

Is the reported MIC for `CC[C@H]1OC(=O)[C@H](C)[C@@H](O[C@H]2C[C@@](C)(OC)[C@@H](O)[C@H](C)O2)[C@H](C)[C@@H](O[C@@H]2O[C@H](C)C[C@H](NC)[C@H]2O)[C@](C)(O)C[C@@H](C)C(=O)[C@H](C)[C@@H](O)[C@]1(C)O` strictly below 30 µg/mL?
TRUE

Is the reported MIC for CC[C@H]1OC(=O)[C@H](C)C(=O)[C@H](C)[C@@H](O[C@@H]2O[C@H](C)C[C@H](N(C)C)[C@H]2O)[C@](C)(OCC=Cc2cnc3ccccc3c2)C[C@@H](C)C(=O)[C@H](C)[C@H]2NC(=O)O[C@@]21C [CETHROMYCIN] strictly below 30 µg/mL?
TRUE

Is the reported MIC for `CC[C@H]1OC(=O)[C@H](C)[C@@H](O[C@H]2C[C@@](C)(OC)[C@@H](O)[C@H](C)O2)[C@H](C)[C@@H](O[C@@H]2O[C@H](C)C[C@H](N(C)C(=N)N)[C@H]2O)[C@](C)(OC)C[C@@H](C)C(=O)[C@H](C)[C@@H](O)[C@]1(C)O` strictly below 30 µg/mL?
FALSE

Is the reported MIC for `CC[C@H]1OC(=O)[C@H](C)[C@@H](O[C@H]2C[C@@](C)(OC)[C@@H](O)[C@H](C)O2)[C@H](C)[C@@H](O[C@H]2C[C@@H](N(C)C)C[C@@H](C)O2)[C@](C)(O)C[C@@H](C)C(=O)[C@H](C)[C@@H](O)[C@]1(C)O` strictly below 30 µg/mL?
FALSE

Is the reported MIC for `CC[C@H]1OC(=O)[C@H](C)C(=O)[C@H](C)[C@@H](O[C@H]2C[C@@H](N(C)C)C[C@@H](C)O2)[C@](C)(OC)C[C@@H](C)C(=O)[C@H](C)[C@H]2N(CCCCn3cnc(-c4cccnc4)c3)C(=O)O[C@]12C` strictly below 30 µg/mL?
TRUE

Is the reported MIC for `CCCCN(C)[C@@H]1C[C@H](O[C@@H]2[C@@H](C)C(=O)[C@@H](C)C(=O)O[C@H](CC)[C@@]3(C)OC(=O)N(CCCCn4cnc(-c5cccnc5)c4)[C@@H]3[C@@H](C)C(=O)[C@H](C)C[C@@]2(C)OC)O[C@H](C)C1` strictly below 30 µg/mL?
FALSE

Is the reported MIC for `CC[C@H]1OC(=O)[C@H](C)[C@@H](O[C@H]2C[C@@](C)(OC)[C@@H](O)[C@H](C)O2)[C@H](C)[C@@H](O[C@H]2C[C@@H](N(C)C)C[C@@H](C)O2)[C@](C)(OC)C[C@@H](C)C(=O)[C@H](C)[C@@H](O)[C@]1(C)O` strictly below 30 µg/mL?
FALSE

====

test system: Staphylococcus aureus; test: Antibacterial activity against macrolide-resistant Staphylococcus aureus ATCC 33591 constitutively expressing ermA; format: functional
Parameter measured: MIC

Given the molecule `CC[C@H]1OC(=O)[C@H](C)[C@@H](O[C@H]2C[C@@](C)(OC)[C@@H](O)[C@H](C)O2)[C@H](C)[C@@H](O[C@H]2C[C@@H](N(C)C)C[C@@H](C)O2)[C@](C)(OC)C[C@@H](C)C(=O)[C@H](C)[C@@H](O)[C@]1(C)O` and test system Staphylococcus aureus, the measured MIC is > 256 µg/mL

Given the molecule `CC[C@H]1OC(=O)[C@H](C)[C@@H](O[C@H]2C[C@@](C)(OC)[C@@H](O)[C@H](C)O2)[C@H](C)[C@@H](O[C@@H]2O[C@H](C)C[C@H](N(C)C)[C@H]2O)[C@](C)(O)C[C@@H](C)C(=O)[C@H](C)[C@@H](O)[C@]1(C)O` and test system Staphylococcus aureus, the measured MIC is > 256 µg/mL

Given the molecule `CC[C@H]1OC(=O)[C@H](C)C(=O)[C@H](C)[C@@H](O[C@@H]2O[C@H](C)C[C@H](N(C)C)[C@H]2O)[C@](C)(OC)C[C@@H](C)C(=O)[C@H](C)[C@H]2N(CCCCn3cnc(-c4cccnc4)c3)C(=O)O[C@]12C` and test system Staphylococcus aureus, the measured MIC is > 256 µg/mL

Given the molecule `CC[C@H]1OC(=O)[C@H](C)[C@@H](O[C@H]2C[C@@](C)(OC)[C@@H](O)[C@H](C)O2)[C@H](C)[C@@H](O[C@@H]2O[C@H](C)C[C@H](NC)[C@H]2O)[C@](C)(OC)C[C@@H](C)C(=O)[C@H](C)[C@@H](O)[C@]1(C)O` and test system Staphylococcus aureus, the measured MIC is > 256 µg/mL

====

Provide the recorded MIC for the entries that follow.
system: Staphylococcus aureus; experiment: Antibacterial activity against macrolide-susceptible Staphylococcus aureus ATCC 29213; assay type: functional
Report the figure in µg/mL without appending any unit label.

Per the records, this compound ( `CCCCN(C)[C@H]1C[C@@H](C)O[C@@H](O[C@@H]2[C@@H](C)C(=O)[C@@H](C)C(=O)O[C@H](CC)[C@@]3(C)OC(=O)N(CCCCn4cnc(-c5cccnc5)c4)[C@@H]3[C@@H](C)C(=O)[C@H](C)C[C@@]2(C)OC)[C@@H]1O` ) has MIC equal to 0.5

Per the records, this compound ( `CC[C@H]1OC(=O)[C@H](C)[C@@H](O[C@H]2C[C@@](C)(OC)[C@@H](O)[C@H](C)O2)[C@H](C)[C@@H](O[C@@H]2O[C@H](C)C[C@H](NC)[C@H]2O)[C@](C)(OC)C[C@@H](C)C(=O)[C@H](C)[C@@H](O)[C@]1(C)O` ) has MIC equal to 4

Per the records, this compound ( `CC[C@H]1OC(=O)[C@H](C)C(=O)[C@H](C)[C@@H](O[C@H]2C[C@@H](N(C)C)C[C@@H](C)O2)[C@](C)(OC/C=C/c2cnc3ccccc3c2)C[C@@H](C)C(=O)[C@H](C)[C@H]2NC(=O)O[C@@]21C` ) has MIC equal to 4

====

test system: Staphylococcus aureus; experiment: Antibacterial activity against macrolide-susceptible Staphylococcus aureus ATCC 29213; type: functional
Provide the recorded MIC for the entries that follow.
Report the figure in µg/mL without appending any unit label.

Per the records, this compound ( `CC[C@H]1OC(=O)[C@H](C)C(=O)[C@H](C)[C@@H](O[C@@H]2O[C@H](C)C[C@H](N(C)C)[C@H]2O)[C@](C)(OC)C[C@@H](C)C(=O)[C@H](C)[C@H]2N(CCCCn3cnc(-c4cccnc4)c3)C(=O)O[C@]12C` ) has MIC equal to 0.08

Per the records, this compound ( `CC[C@H]1OC(=O)[C@H](C)C(=O)[C@H](C)[C@@H](O[C@@H]2O[C@H](C)C[C@H](NC)[C@H]2O)[C@](C)(OC)C[C@@H](C)C(=O)[C@H](C)[C@H]2N(CCCCn3cnc(-c4cccnc4)c3)C(=O)O[C@]12C` ) has MIC equal to 16
